Let's look at some compounds and their measured melting point.

Here are 2 compounds together with their reported answers.
O=C(c1ccc(F)c(F)c1)N1CCCC(c2noc(-c3ncc[nH]3)n2)C1 (stereo not given): 148 to 149 °C
Cc1cc(-n2ccnc2)c2cccc(OCc3c(Cl)ccc(S(=O)(=O)N4CCC[C@H]4C(N)=O)c3Cl)c2n1: 110 °C

Exercise: Supply reported melting point belonging to this compound: CC(C)CNc1c2c(nc3cn[nH]c13)CCCC2
Key: 124 to 127 °C

Exercise: Supply reported melting point belonging to this compound: COc1ccc(S(=O)(=O)N2c3cc(Br)sc3-c3ccccc3[C@H]2C)cc1
Key: 136 to 138 °C

Exercise: Supply reported melting point belonging to this compound: COc1ccc2c(CCC3CCN(Cc4ccccc4)CC3)noc2c1
Key: 90.5 to 91.5 °C

All values here come from a melting point compilation (Tetko et al.; mined from patent text by program, amines drawn as free bases though some values may be those of a salt).
